- Tested on: SW 1573
- ASSAY_REMARKS: relative viability (nuclei count vs DMSO), 5 days (fraction); higher = more cells survive
- APPLIED_CONDITIONS: first compound 0.5 µM
hey, just use Condition met if measured relative viability is less than 0.7, otherwise Condition not met

MOLECULE	TARGET_SYSTEM	ASSIGNED_CATEGORY
CC1(C)CCC(c2ccc(Cl)cc2)=C(CN2CCN(c3ccc(C(=O)NS(=O)(=O)c4ccc(N[C@H](CCN5CCOCC5)CSc5ccccc5)c(S(=O)(=O)C(F)(F)F)c4)cc3)CC2)C1 [Navitoclax] + O=C(c1cc(Cc2n[nH]c(=O)c3ccccc23)ccc1F)N1CCN(C(=O)C2CC2)CC1 [Olaparib] (partner 8 µM)	SW 1573	Condition met
CC1(C)CCC(c2ccc(Cl)cc2)=C(CN2CCN(c3ccc(C(=O)NS(=O)(=O)c4ccc(N[C@H](CCN5CCOCC5)CSc5ccccc5)c(S(=O)(=O)C(F)(F)F)c4)cc3)CC2)C1 [Navitoclax] + CC(=O)Nc1cccc(-n2c(=O)n(C3CC3)c(=O)c3c(Nc4ccc(I)cc4F)n(C)c(=O)c(C)c32)c1 [Trametinib] (partner 0.02 µM)	SW 1573	Condition met
CC1(C)CCC(c2ccc(Cl)cc2)=C(CN2CCN(c3ccc(C(=O)NS(=O)(=O)c4ccc(N[C@H](CCN5CCOCC5)CSc5ccccc5)c(S(=O)(=O)C(F)(F)F)c4)cc3)CC2)C1 [Navitoclax] + Cc1nc(Nc2ncc(C(=O)Nc3c(C)cccc3Cl)s2)cc(N2CCN(CCO)CC2)n1 [Dasatinib] (partner 0.075 µM)	SW 1573	Condition met
CC1(C)CCC(c2ccc(Cl)cc2)=C(CN2CCN(c3ccc(C(=O)NS(=O)(=O)c4ccc(N[C@H](CCN5CCOCC5)CSc5ccccc5)c(S(=O)(=O)C(F)(F)F)c4)cc3)CC2)C1 [Navitoclax] + CC(=O)c1c(C)c2cnc(Nc3ccc(N4CCNCC4)cn3)nc2n(C2CCCC2)c1=O [Palbociclib] (partner 0.5 µM)	SW 1573	Condition met
CC1(C)CCC(c2ccc(Cl)cc2)=C(CN2CCN(c3ccc(C(=O)NS(=O)(=O)c4ccc(N[C@H](CCN5CCOCC5)CSc5ccccc5)c(S(=O)(=O)C(F)(F)F)c4)cc3)CC2)C1 [Navitoclax] + C[C@@H](Oc1cc(-c2cnn(C3CCNCC3)c2)cnc1N)c1c(Cl)ccc(F)c1Cl [Crizotinib] (partner 1 µM)	SW 1573	Condition not met
CC1(C)CCC(c2ccc(Cl)cc2)=C(CN2CCN(c3ccc(C(=O)NS(=O)(=O)c4ccc(N[C@H](CCN5CCOCC5)CSc5ccccc5)c(S(=O)(=O)C(F)(F)F)c4)cc3)CC2)C1 [Navitoclax] + C[C@]1(O)C[C@@H](c2nc(-c3ccc4ccc(-c5ccccc5)nc4c3)c3c(N)nccn32)C1 [Linsitinib] (partner 1 µM)	SW 1573	Condition not met

---

Each item that follows carries a reported relative viability.
- Test system: EMC-BAC-2
- ASSAY_REMARKS: relative viability (nuclei count vs DMSO), 5 days (fraction); higher = more cells survive
- APPLIED_CONDITIONS: first compound 8 µM

MOLECULE	relative viability
C=C1C(=O)O[C@@H](CCCCCCCC)[C@@H]1C(=O)O [C-75] + CC(=O)Nc1cccc(-n2c(=O)n(C3CC3)c(=O)c3c(Nc4ccc(I)cc4F)n(C)c(=O)c(C)c32)c1 [Trametinib] (partner 0.02 µM)	0.89
C=C1C(=O)O[C@@H](CCCCCCCC)[C@@H]1C(=O)O [C-75] + CC1(C)CCC(c2ccc(Cl)cc2)=C(CN2CCN(c3ccc(C(=O)NS(=O)(=O)c4ccc(N[C@H](CCN5CCOCC5)CSc5ccccc5)c(S(=O)(=O)C(F)(F)F)c4)cc3)CC2)C1 [Navitoclax] (partner 0.5 µM)	1.18
C=C1C(=O)O[C@@H](CCCCCCCC)[C@@H]1C(=O)O [C-75] + O=C(c1cc(Cc2n[nH]c(=O)c3ccccc23)ccc1F)N1CCN(C(=O)C2CC2)CC1 [Olaparib] (partner 8 µM)	0.389
C=C1C(=O)O[C@@H](CCCCCCCC)[C@@H]1C(=O)O [C-75] + CC(=O)c1c(C)c2cnc(Nc3ccc(N4CCNCC4)cn3)nc2n(C2CCCC2)c1=O [Palbociclib] (partner 0.5 µM)	0.521

---

- System: NCI-H23
- ASSAY_REMARKS: relative viability (nuclei count vs DMSO), 5 days (fraction); higher = more cells survive
- APPLIED_CONDITIONS: first compound 0.01 µM
Listed here: items and their measured relative viability.
MEASURED_ATTRIBUTE: relative viability

MOLECULE	MEASURED_ATTRIBUTE	REPORTED_VALUE
NC(=O)Nc1cc(-c2cccc(F)c2)sc1C(=O)N[C@H]1CCCNC1 [AZD7762] + C[C@]1(O)C[C@@H](c2nc(-c3ccc4ccc(-c5ccccc5)nc4c3)c3c(N)nccn32)C1 [Linsitinib] (partner 1 µM)	relative viability	0.659
NC(=O)Nc1cc(-c2cccc(F)c2)sc1C(=O)N[C@H]1CCCNC1 [AZD7762] + COc1cc2c(Oc3ccc(NC(=O)C4(C(=O)Nc5ccc(F)cc5)CC4)cc3F)ccnc2cc1OCCCN1CCOCC1 [Foretinib] (partner 0.25 µM)	relative viability	0.886
NC(=O)Nc1cc(-c2cccc(F)c2)sc1C(=O)N[C@H]1CCCNC1 [AZD7762] + N=C(N)NC(=N)NCCc1ccccc1 [Phenformin] (partner 250 µM)	relative viability	0.813
NC(=O)Nc1cc(-c2cccc(F)c2)sc1C(=O)N[C@H]1CCCNC1 [AZD7762] + Nc1ncn([C@H]2C[C@H](O)[C@@H](CO)O2)c(=O)n1 [Decitabine] (partner 2 µM)	relative viability	0.329
NC(=O)Nc1cc(-c2cccc(F)c2)sc1C(=O)N[C@H]1CCCNC1 [AZD7762] + Cc1cc(Nc2cc(N3CCN(C)CC3)nc(Sc3ccc(NC(=O)C4CC4)cc3)n2)n[nH]1 [Tozasertib] (partner 0.1 µM)	relative viability	0.41
NC(=O)Nc1cc(-c2cccc(F)c2)sc1C(=O)N[C@H]1CCCNC1 [AZD7762] + Cc1nc(Nc2ncc(C(=O)Nc3c(C)cccc3Cl)s2)cc(N2CCN(CCO)CC2)n1 [Dasatinib] (partner 0.075 µM)	relative viability	0.961
NC(=O)Nc1cc(-c2cccc(F)c2)sc1C(=O)N[C@H]1CCCNC1 [AZD7762] + CCNC(=O)c1noc(-c2cc(C(C)C)c(O)cc2O)c1-c1ccc(CN2CCOCC2)cc1 [Luminespib] (partner 0.01 µM)	relative viability	0.226

---

- Tested on: LCLC-103H
- ASSAY_REMARKS: relative viability (nuclei count vs DMSO), 5 days (fraction); higher = more cells survive
- APPLIED_CONDITIONS: first compound 1.265 µM
Binary label based on relative viability with cut-off 0.7: below gives condition met, not below gives condition not met.

MOLECULE	TARGET_SYSTEM	ASSIGNED_CATEGORY
O=C(O)c1ccc(-c2c[nH]c3ncc(-c4ccccc4)cc23)cc1C1CCCC1 + CS(=O)(=O)N1CCN(Cc2cc3nc(-c4cccc5[nH]ncc45)nc(N4CCOCC4)c3s2)CC1 [Pictilisib] (partner 1 µM)	LCLC-103H	condition met
O=C(O)c1ccc(-c2c[nH]c3ncc(-c4ccccc4)cc23)cc1C1CCCC1 + CC(=O)c1c(C)c2cnc(Nc3ccc(N4CCNCC4)cn3)nc2n(C2CCCC2)c1=O [Palbociclib] (partner 0.5 µM)	LCLC-103H	condition met
O=C(O)c1ccc(-c2c[nH]c3ncc(-c4ccccc4)cc23)cc1C1CCCC1 + NC(=O)Nc1cc(-c2cccc(F)c2)sc1C(=O)N[C@H]1CCCNC1 [AZD7762] (partner 0.2 µM)	LCLC-103H	condition not met
O=C(O)c1ccc(-c2c[nH]c3ncc(-c4ccccc4)cc23)cc1C1CCCC1 + Cc1nc(NC(=O)N2CCC[C@H]2C(N)=O)sc1-c1ccnc(C(C)(C)C(F)(F)F)c1 [Alpelisib] (partner 2 µM)	LCLC-103H	condition not met
O=C(O)c1ccc(-c2c[nH]c3ncc(-c4ccccc4)cc23)cc1C1CCCC1 + COc1cccc2cc(-c3nc([C@H]4CC[C@H](C(=O)O)CC4)n4ncnc(N)c34)[nH]c12 [OSI-027] (partner 0.5 µM)	LCLC-103H	condition met
O=C(O)c1ccc(-c2c[nH]c3ncc(-c4ccccc4)cc23)cc1C1CCCC1 + O=C(c1cc(Cc2n[nH]c(=O)c3ccccc23)ccc1F)N1CCN(C(=O)C2CC2)CC1 [Olaparib] (partner 8 µM)	LCLC-103H	condition not met

---

relative viability listing for selected molecules.
- Test system: 201T
- ASSAY_REMARKS: relative viability (nuclei count vs DMSO), 5 days (fraction); higher = more cells survive
- APPLIED_CONDITIONS: first compound 0.3162 µM

MOLECULE	relative viability
NC(=O)Nc1cc(-c2cccc(F)c2)sc1C(=O)N[C@H]1CCCNC1 [AZD7762] + O=C(c1cc(Cc2n[nH]c(=O)c3ccccc23)ccc1F)N1CCN(C(=O)C2CC2)CC1 [Olaparib] (partner 8 µM)	0.566
NC(=O)Nc1cc(-c2cccc(F)c2)sc1C(=O)N[C@H]1CCCNC1 [AZD7762] + CC1(C)CCC(c2ccc(Cl)cc2)=C(CN2CCN(c3ccc(C(=O)NS(=O)(=O)c4ccc(N[C@H](CCN5CCOCC5)CSc5ccccc5)c(S(=O)(=O)C(F)(F)F)c4)cc3)CC2)C1 [Navitoclax] (partner 0.5 µM)	1.25
NC(=O)Nc1cc(-c2cccc(F)c2)sc1C(=O)N[C@H]1CCCNC1 [AZD7762] + C[C@@H](Oc1cc(-c2cnn(C3CCNCC3)c2)cnc1N)c1c(Cl)ccc(F)c1Cl [Crizotinib] (partner 1 µM)	1.04
NC(=O)Nc1cc(-c2cccc(F)c2)sc1C(=O)N[C@H]1CCCNC1 [AZD7762] + O=C(CCCCCCC(=O)Nc1ccccc1)NO [Vorinostat] (partner 1 µM)	1.08
NC(=O)Nc1cc(-c2cccc(F)c2)sc1C(=O)N[C@H]1CCCNC1 [AZD7762] + CS(=O)(=O)N1CCN(Cc2cc3nc(-c4cccc5[nH]ncc45)nc(N4CCOCC4)c3s2)CC1 [Pictilisib] (partner 1 µM)	0.65

Source listed as the supplement of paper PMC10307832.
